# STUDY_TARGET: Protein farnesyltransferase (Rattus norvegicus, UniProt Q02293+Q04631)
# EXPERIMENTAL_PROTOCOL: Inhibition of farnesyl transferase (FTase) of rat brain
Rule: IC50 below 1000 nM gives True. Equal to or above 1000 nM gives False.

• CSCC[C@H](NC(=O)[C@@H]1Cc2ccccc2CN1C(=O)C(NC(=O)[C@H](S)NC(=O)C(N)CCCCN)C(C)C)C(=O)O (single isomer, unassigned; form 1) = False
• CSCC[C@H](NC(=O)[C@H]1Cc2ccccc2CN1C(=O)[C@H]1CCCN1C(=O)[C@H](CS)NC(=O)[C@@H](N)CCCCN)C(=O)O = False
• CSCC[C@H](NC(=O)[C@@H]1Cc2ccccc2CN1C(=O)[C@H](C(C)C)N(C)C(=O)[C@H](S)NC(=O)[C@H](N)CCCCN)C(=O)O = True
• CSCC[C@H](NC(=O)[C@@H]1Cc2ccccc2CN1C(=O)[C@@H](NC(=O)[C@H](S)NC(=O)C(N)CCCCN)C(C)C)C(=O)O (single isomer, unassigned) = True
• CSCC[C@H](NC(=O)[C@@H]1Cc2ccccc2CN1C(=O)[C@H](NC(=O)[C@H](CS)NC(=O)[C@@H](N)CCCCN)C(C)C)C(=O)O (stereo in doubt; form 1) = False
• CSCC[C@H](NC(=O)[C@@H]1Cc2ccccc2CN1C(=O)[C@H](NC(=O)[C@H](CS)NC(=O)[C@@H](N)CCCCN)C(C)C)C(=O)O (stereo in doubt; form 2) = False
• CSCC[C@H](NC(=O)[C@@H]1Cc2ccccc2CN1C(=O)C(NC(=O)[C@H](S)NC(=O)C(N)CCCCN)C(C)C)C(=O)O (single isomer, unassigned; form 2) = False
• CSCC[C@H](NC(=O)[C@@H]1Cc2ccccc2CN1C(=O)[C@@H](NC(=O)[C@H](S)NC(=O)[C@H](N)CCCCN)C(C)(C)C)C(=O)O = True
• CSCC[C@H](NC(=O)[C@@H]1Cc2ccccc2CN1C(=O)[C@@H]1CCCN1C(=O)[C@H](S)NC(=O)C(N)CCCCN)C(=O)O (single isomer, unassigned) = False
